- Tested on: SUDHL4
- Test Name: DLBCL cell proliferation, ATPLite assay
- Format: cell-based, human
- Assay Conditions: SUDHL4, 72 hours; read-out: Inhibition of proliferation IC50
Readout Kind: IC50 (µM)

COc1cc(Nc2ncc(F)c(Nc3ccc4c(n3)NC(=O)C(C)(C)O4)n2)cc(OC)c1OC [Compound R406, reference compound] :: 3.67

---

- System Name: full-length human SYK (Homo sapiens (Human))
- Test Name: Inhibition of enzymatic SYK kinase activity (LANCE Ulight TK peptide)
- Format: biochemical
- Assay Conditions: ATP at Km (15 uM), 30 min pre-incubation
pIC50: −log10 of the molar value.
Readout Kind: pIC50

Cn1cc(C(=O)C2CC2)c2cc(Nc3nccc(-n4cc(CN5C[C@H](O)CO5)cn4)n3)ccc21 :: 8.61
O=C(c1cn(CC(F)(F)F)c2ccc(Nc3nccc(-n4cc(CN5C[C@H](O)CO5)cn4)n3)cc12)C1CC1 :: 8.24
Cc1cnc(Nc2ccc3c(c2)c(C(=O)C(F)(F)F)cn3C)nc1-n1cc(CN2C[C@H](O)CO2)c(C)n1 :: 6.80
Cc1nn(-c2ccnc(Nc3ccc4c(c3)c(C(=O)C(C)C)cn4C)n2)cc1CN1C[C@H](O)CO1 :: 8.06
Cc1nn(-c2ccnc(Nc3ccc4c(c3)c(C(=O)C3CC3)cn4C(C)C)n2)cc1CN1C[C@H](O)CO1 :: 8.13
Cc1cnc(Nc2ccc3c(c2)c(C(=O)C2CC2)cn3C)nc1-n1cc(CN2C[C@H](O)CO2)c(C)n1 :: 6.57

---

- System Name: UniProt P43405
- Test Name: Inhibition of enzymatic SYK kinase activity (LANCE Ulight TK peptide)
- Format: biochemical
- Experimental: Compounds of the present invention were assayed to measure their capacity to inhibit a spleen tyrosine kinase (SYK). Compounds of the invention were initially diluted to 10 mM in 100% DMSO (CALBIOCHEM™) for storage and made into kinase buffer solution to create a compound concentration ranging from 1 uM and 10 uM. Serial dilutions of compounds of the invention were dispensed into a 96-well plate (GREINER BIOSCIENCES™) at 6 μL each. […]
Readout Kind: IC50 (nM)

CCn1cc(C(=O)C2CC2)c2cc(Nc3nccc(-n4cc(C)c(CN5C[C@H](O)CO5)c4)n3)ccc21 :: 69.5

---

Entries and their log10 IC50 values follow.
- System Name: full-length human SYK (Homo sapiens (Human), UniProt P43405)
- Test Name: Inhibition of enzymatic SYK kinase activity (LANCE Ulight TK peptide)
- Format: biochemical
- Assay Conditions: ATP at Km (15 uM), 30 min pre-incubation
Readout Kind: log10 IC50 (log10 of the value in nM)

Cc1nn(-c2ccnc(Nc3ccc4c(c3)c(C(=O)C(F)F)cn4C)n2)cc1CN1C[C@@H](O)CO1 :: 1.39
O=C(c1cn(CC(F)F)c2ccc(Nc3nccc(-n4cc(CN5C[C@H](O)CO5)cn4)n3)cc12)C1CC1 :: 0.73
Cc1nn(-c2ccnc(Nc3ccc4c(c3)c(C(=O)C(F)(F)F)cn4C)n2)cc1CN1C[C@H](O)CO1 :: 0.45
Cc1nn(-c2ccnc(Nc3ccc4[nH]cc(C(=O)C5CC5)c4c3)n2)cc1CN1C[C@H](O)CO1 :: 1.13
Cc1nn(-c2ccnc(Nc3ccc4c(c3)c(C(=O)C3CC3)cn4CC(F)(F)F)n2)cc1CN1CC(C)(O)CO1 (stereo not shown) :: 1.15
Cc1nn(-c2ccnc(Nc3ccc4c(c3)c(C(=O)C3CC3)cn4CCF)n2)cc1CN1C[C@H](O)CO1 :: 0.57
Cc1nn(-c2ccnc(Nc3ccc4c(c3)c(C(=O)C3CC3)cn4C)n2)cc1CN1CC(C)(O)CCO1 (stereo not shown) :: 2.03

---

- System: THP-1 cells
- Test Name: SYK-dependent TNF-α release assay (IgG stimulation), ELISA
- Type: cell-based
- Assay Conditions: THP-1 cells on human IgG-coated plate, 18 hours; read-out: TNF-α release inhibition, IgG stimulation IC50
Entries and their IC50 values follow.
Readout Kind: IC50 (nM)

CCn1cc(C(=O)C2CC2)c2cc(Nc3nccc(-n4cc(CN5C[C@H](O)CO5)c(C5CC5)n4)n3)ccc21 :: 465
Cc1nn(-c2ccnc(Nc3ccc4c(c3)c(C(=O)C3CC3)cn4CC(F)(F)F)n2)cc1CN1CC(C)(O)CO1 (stereo not shown) :: 226
O=C(c1cn(CCF)c2ccc(Nc3nccc(-n4cc(CN5C[C@H](O)CO5)cn4)n3)cc12)C1CC1 :: 53
Cc1cnc(Nc2ccc3c(c2)c(C(=O)C2CC2)cn3C)nc1-n1cc(CN2C[C@H](O)CO2)c(C)n1 :: 821
O=C(c1cn(CC(F)F)c2ccc(Nc3nccc(-n4cc(CN5C[C@H](O)CO5)cn4)n3)cc12)C1CC1 :: 60
COc1cc(Nc2ncc(F)c(Nc3ccc4c(n3)NC(=O)C(C)(C)O4)n2)cc(OC)c1OC [Compound R406, reference compound] :: 217
Cc1nn(-c2ccnc(Nc3ccc4c(c3)c(C(=O)C3CC3)cn4S(C)(=O)=O)n2)cc1CN1C[C@H](O)CO1 :: 43
